Origin of measurements: ChEMBL document CHEMBL1201862

System: DLD-1
testDescription: NCI tumour cell line growth inhibition, 48 h
The source made the active and inactive calls. No stated cut-off is given here; in the data, active = GI50 up to about 1.1 µM and inactive = higher.
propertyLabel: GI50

compound | GI50
COc1c(C2=NC(C(C)C)CO2)ccc2ccccc12 (stereo not drawn) | 16.1 µM (inactive)
Cc1cccc(C)c1NC(=O)CCC(=O)NNC(=O)c1cc(O)c2ccccc2c1 | 34.9 µM (inactive)
Brc1nc2c3ccccc3ncn2c1Br | 43.6 µM (inactive)
NS(=O)(=O)c1ccc(NC(=O)c2cccc3c(=O)c4ccccc4[nH]c23)cc1 | > 100 µM (inactive)

Query GI50 for `Cc1c(N(C)C)ccc2c(=O)c3cccc(CC(=O)O)c3oc12`
> 100 µM (inactive)

Query GI50 for `C/C(CN1C(=O)c2ccccc2C1=O)=N\NS(=O)(=O)c1ccc(Cl)cc1`
> 100 µM (inactive)

Query GI50 for `COC(=O)c1cc(=O)nc2cc3cccccc3n12`
> 100 µM (inactive)

---

Test system: 786-0
testDescription: NCI tumour cell line growth inhibition, 48 h
The source made the active and inactive calls. Rule as the data show it: active = GI50 up to about 1.1 µM and inactive = higher.
propertyLabel: GI50

Consider the worked cases shown below.
compound | testedOn | GI50
O=C(O)CCC(NC(=O)c1ccc(Nc2nc3ccc(C(F)(F)F)cc3nc2C(=O)O)cc1)C(=O)O (stereo unspecified) | 786-0 | > 100 µM (inactive)
COc1c(C2=NC(C(C)C)CO2)ccc2ccccc12 (stereo unspecified) | 786-0 | 45.9 µM (inactive)
CSc1nc2cc(S(=O)(=O)N3CCCCC3)ccc2s1 | 786-0 | > 100 µM (inactive)
CC(C)C(=O)OCN(C)c1nc(N(C)COC(=O)C(C)C)nc(N(C)COC(=O)C(C)C)n1 | 786-0 | 28.5 µM (inactive)
CCOC(=O)C(=C=C=C(c1ccccc1)c1ccccc1)C(=O)OCC | 786-0 | 17.8 µM (inactive)

Query GI50 for `Cc1cc(S(=O)(=O)Nc2nc3cccnc3[nH]2)c(S)cc1Cl`
> 100 µM (inactive)

Query GI50 for `O=CN1CCN(c2ccc3ccc(O)nc3n2)CC1`
> 100 µM (inactive)

Query GI50 for C[C@]12CC/C(=N\O)C=C1CC[C@@H]1C2CC[C@@]2(C)C1CC[C@@H]2OC1CCCCO1 (stereo partly specified)
17.7 µM (inactive)

Query GI50 for `NC1=NS(=O)(=O)Nc2nc(-c3ccc([N+](=O)[O-])cc3)[nH]c21`
> 100 µM (inactive)

Query GI50 for `C/C(CN1C(=O)c2ccccc2C1=O)=N\NS(=O)(=O)c1ccc(Cl)cc1`
> 100 µM (inactive)

Query GI50 for `COc1ccc(O)c(/C=N/NC(=S)N2CCCCC2)c1`
1.15 µM (inactive)

---

Test system: SNB-75
testDescription: NCI tumour cell line growth inhibition, 48 h
Activity calls are given as the source filed them. No stated cut-off is given here; in the data, active = GI50 up to about 1.1 µM and inactive = higher.
propertyLabel: GI50

Consider the worked cases shown below.
smiles | GI50
CC(C)C(=O)OCN(C)c1nc(N(C)COC(=O)C(C)C)nc(N(C)COC(=O)C(C)C)n1 | 17.8 µM (inactive)
O=S(=O)(Nc1ccccc1)c1ccc(-c2c3nc(c(-c4ccc(S(=O)(=O)Nc5ccccc5)cc4)c4ccc([nH]4)c(-c4ccc(S(=O)(=O)Nc5ccccc5)cc4)c4nc(c(-c5ccc(S(=O)(=O)Nc6ccccc6)cc5)c5ccc2[nH]5)C=C4)C=C3)cc1 | 11.5 µM (inactive)
O=C(/C(=C\c1ccc(Cl)cc1)c1ccccc1)c1ccccc1 | 88.9 µM (inactive)

Query GI50 for `COc1cccc(/C=N/n2c(Cc3ccccc3)n[nH]c2=O)c1`
29.4 µM (inactive)

---

Test system: MDA-MB-435
testDescription: NCI tumour cell line growth inhibition, 48 h
Calls of active or inactive are those of the source. Rule as the data show it: active = GI50 up to about 1.1 µM and inactive = higher.
A collection of compounds and their measured GI50

Consider the worked cases shown below.
compound | valueReported
C=C(C)c1cc(C(C)(C)C)cc(C(=C)C)c1S(C)(=O)=O | > 100 µM (inactive)
CN1CCC2(CC1)/C(=N/C1CCCCC1)NC(=S)N2c1ccccc1 | > 100 µM (inactive)
CCOC(=O)Cc1csc(NC(NC(=O)OCC)(C(=O)OCC)C(F)(F)F)n1 (configuration not stated) | > 100 µM (inactive)
CC1=NN(c2nc(N)nc(/C(C#N)=C\C3COc4ccccc4C3=O)n2)C(C)(C)C1 (configuration not stated) | 32.1 µM (inactive)
COc1ccc(-c2c(-c3ccccc3)c(C)nc3[nH]c(=S)[nH]c(=S)c23)cc1OC | 26.9 µM (inactive)
C1CCNCC1.Oc1ncnc2[nH]cc(CN3CCCCC3)c12 | > 100 µM (inactive)
O=S(=O)(N/C(=N\O)Nc1ccc(Cl)cc1)c1cc2ccccc2o1 | 12.2 µM (inactive)
COc1ccc2c(c1)C(=O)CC(C(N)=O)C2 (configuration not stated) | > 100 µM (inactive)

Query GI50 for `O=C(Cc1ccccc1)NN1C(=O)/C(=C\c2ccccc2O)S/C1=N\c1ccccc1`
> 100 µM (inactive)

Query GI50 for `O=C1N(C2CCCCC2)C(=O)N1C1CCCCC1`
2.08 µM (inactive)

Query GI50 for `Cc1ccc(P(c2ccc(C)cc2)c2ccc(C)cc2)cc1`
19.1 µM (inactive)

Query GI50 for `COc1cc2c(cc1OC)C/C(=N\O)c1cc(OC)c(OC)cc1/C=C\2`
0.822 µM (active)

Query GI50 for `CC(=O)NC1=C(C)C(=O)c2c(nc3n2CC[C@H]3OC(C)=O)C1=O`
0.774 µM (active)

Query GI50 for `Cc1ccc(S(=O)(=O)N/N=C2\C(=O)Nc3cc(O)c(C(=O)O)cc32)cc1`
> 100 µM (inactive)

Query GI50 for CCOC(=O)c1csc(NC(=O)C(C)N2CCCC2)n1 (configuration not stated)
> 100 µM (inactive)

---

Test system: HL-60
testDescription: NCI tumour cell line growth inhibition, 48 h
Calls of active or inactive are those of the source. Rule as the data show it: active = GI50 up to about 1.1 µM and inactive = higher.
propertyLabel: GI50

Consider the worked cases shown below.
molecule | GI50
COc1cccc(C2c3cc4c(cc3OC(NNC(N)=O)C2C)OCO4)c1O (stereo unspecified) | 1.05 µM (active)
CC(=O)/C(=C\c1ccc(Cl)c(Cl)c1)C(=O)C(C)CN(C)C (stereo unspecified) | 2 µM (inactive)
Cc1ccc(C(=O)N/N=C2/C(=O)c3c4ccccc4cc4cccc2c34)cc1 | 10.2 µM (inactive)

Query GI50 for N#CC1CCCCOCCOCCOCCOCCOCCCCCC1=O (stereo unspecified)
> 100 µM (inactive)

Query GI50 for CC(=O)C(C(C)=O)=C1CCCC(O)O1 (stereo unspecified)
> 100 µM (inactive)

---

Tested on: RXF 631
testDescription: NCI tumour cell line growth inhibition, 48 h
Calls of active or inactive are those of the source. No stated cut-off is given here; in the data, active = GI50 up to about 1.1 µM and inactive = higher.
propertyLabel: GI50

Consider the worked cases shown below.
compound | testedOn | GI50
COc1ccc(CC2NCCc3c2[nH]c2ccccc32)cc1 (stereo not drawn) | RXF 631 | 25.3 µM (inactive)
COCC1C(=O)c2cc3c(cc2C12C=CC1(C=C2)OCCO1)OCO3 (stereo not drawn) | RXF 631 | 4.59 µM (inactive)
CCSc1nnc(CSc2nc(-c3ccccc3)c(-c3ccccc3)[nH]2)n1-c1ccccc1 | RXF 631 | 19.6 µM (inactive)

Query GI50 for O=C1[C@H]2ON(c3ccccc3)C(c3ccccc3)[C@H]2C(=O)N1c1ccc(Cc2ccc(N3C(=O)[C@@H]4ON(c5ccccc5)C(c5ccccc5)[C@@H]4C3=O)cc2)cc1 (stereo partly drawn)
> 100 µM (inactive)

Query GI50 for `COc1ccc2c(c1)CCCN2CCCCCCCCCCN(CCC(C)C)CCC(C)C`
8.87 µM (inactive)

Query GI50 for O=C1CC(c2c[nH]c3ccccc23)C(=O)N1 (stereo not drawn)
> 100 µM (inactive)

Query GI50 for `C/C(=N/NC(=O)CC(=O)N(C(=O)c1ccccc1Cl)c1ccc(C)cc1)c1cc2ccccc2oc1=O`
> 100 µM (inactive)

Query GI50 for `N/N=c1/nc2n(c3ncccc13)C=CNN2`
> 100 µM (inactive)

---

A collection of compounds and their measured GI50
Tested on: MDA-N
testDescription: NCI tumour cell line growth inhibition, 48 h
Activity calls are given as the source filed them. Cut-off read from the data, not from the text of the source: active = GI50 up to about 1.1 µM and inactive = higher. Non-standard residues stand in square brackets, D forms with d. Residues, ends and D or L forms follow the SMILES beside them. *: point of attachment. X30 = COC1=CC(=O)N(C(=O)[C@@H](O*)C(C)C)[C@H]1Cc1ccccc1; NMeL = CN[C@@H](CC(C)C)C(=O)O; Cbz = O=C(OCc1ccccc1)*

Consider the worked cases shown below.
compound | testedOn | propertyLabel | valueReported
COC1=CC(=O)N(C(=O)[C@@H](OC(=O)[C@@H]2CCCN2C(=O)[C@@H]2CCCN2C(=O)[C@H](CC(C)C)N(C)C(=O)[C@@H](NC(=O)[C@@H](NC(=O)OCc2ccccc2)C(C)C)C(C)C)C(C)C)[C@H]1Cc1ccccc1 (Cbz-VV[NMeL]PP-X30) | MDA-N | GI50 | > 100 µM (inactive)
COc1cc2c(cc1OC)C(=O)/C(=C/c1ccc(N(C)C)cc1)CC2 | MDA-N | GI50 | > 10 µM (inactive)

Attention now turns to another entry.
Query GI50 for `COc1ccc(-c2c(-c3ccccc3)c(C)nc3[nH]c(=S)[nH]c(=S)c23)cc1OC`
30.1 µM (inactive)
